- Experiment: RPMI8226 myeloma cell viability, profiling panel, resazurin fluorescence, basal, 24 h, PK04 Diversity Set (AID 1180);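 further: RPMI8826 multiple myeloma cell line at 5000 cells per well; test concentration not given here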
- Experimental Conditions: higher = more signal
Measured Quantity: z-score
The reply should be a number, written without any unit.

Answered cases to consult:
Compound	z-score
C=CCOC(=O)[C@@H]1[C@H]2C(=O)O[C@H](c3ccccc3)[C@H](c3ccccc3)N2[C@H](c2ccc(OCCOC(=O)[C@H]3C[C@H]4C(=O)N[C@@H](CCCCN(C)C)C(=O)N4[C@H]3c3cccc(OCCO)c3)cc2)[C@@]12C(=O)Nc1ccc(I)cc12	-0.209
COC(=O)[C@@]1(Cc2ccc(OC)cc2)[C@H]2c3cc(C(=O)N(C)C)n(Cc4ccccc4)c3C[C@H]2CN1C(=O)c1ccccc1	-1.66
COc1ccc(C(O)C2C=CC3C(=O)N(c4ccccc4)C(=O)C3N2Nc2ccccc2)cc1OCc1ccccc1 (stereo unspecified)	-1.2
COCCCNC(=O)[C@@]1(Sc2ccc(C)cc2)CC(=O)N(C2Cc3ccccc3C2)[C@@H]1c1ccc(CO)cc1I	-2.31
C=CCOC(=O)[C@H]1[C@@H]2C(=O)O[C@@H](c3ccccc3)[C@@H](c3ccccc3)N2[C@@H](c2ccc(OCCOC(=O)[C@H]3C[C@H]4C(=O)N[C@@H](Cc5ccccc5)C(=O)N4[C@H]3c3cccc(OCCO)c3)cc2)[C@]12C(=O)Nc1ccc(I)cc12	0.0282

[ask] Record request: z-score value, item CC=CC(O)C1C=CC2C(=O)N(c3ccccc3)C(=O)C2N1Nc1ccccc1 (stereo unspecified)
[reply] 0.394

[ask] Record request: z-score value, item `O=C(CS)NCCCCCCNC(=O)[C@H]1C[C@H]2C(=O)N[C@@H](Cc3ccccc3)C(=O)N2[C@H]1c1cccc(OCCO)c1`
[reply] -0.614

[ask] Record request: z-score value, item COc1cc(OC)c(C(O)C2C=CC3C(=O)N(c4ccccc4)C(=O)C3N2Nc2ccc(C#N)cc2)cc1Br (stereo unspecified)
[reply] -0.758

[ask] Record request: z-score value, item `Cc1ccc(S[C@]2(C(=O)NCC(F)(F)F)CC(=O)N(Cc3ccccc3)[C@@H]2c2ccc(CO)cc2)cc1`
[reply] 0.342

[ask] Record request: z-score value, item `COCCCNC(=O)[C@]1(Cc2ccccc2CN=[N+]=[N-])N=C(c2ccc(OCCCO)cc2)O[C@@H]1c1ccccc1`
[reply] -3.11

[ask] Record request: z-score value, item `COc1ccc([Si](C)(C)[C@H]2[C@H](CCO)O[C@@]3(C(=O)N(Cc4cccc(N5CCCCC5=O)c4)c4ccccc43)[C@@H]2C)cc1`
[reply] -4.57

* * *

- Target Desc: NADPH oxidase 5 (Homo sapiens)
- Experiment: NOX5-dependent H2O2 signal modulators, primary screen, NOX inhibitor project, cell-based, HEK293-NOX5, Amplex Red fluorescence (AID 1161)
- Experimental Conditions: HEK293-NOX5, ionomycin, 45 min, higher = more signal
Measured Quantity: z-score
The reply should be a number, written without any unit.

Answered cases to consult:
                           smiles_structure                     target_desc  measured_quantity  readout_value
0  C=CC[C@@]1(C(=O)O)N=C(c2ccc(OCCCO)cc2)O[C@@H]1c1ccccc1  NADPH oxidase 5 (Homo sapiens)            z-score          0.448
1  CCC[C@@H]1C[C@@]1(CCC)[C@@H](NP(=O)(c1ccccc1)c1ccccc1)c1ccc(Cl)cc1  NADPH oxidase 5 (Homo sapiens)            z-score          0.429

[ask] Record request: z-score value, item `COC(=O)[C@@]1(Cc2ccc(F)cc2)[C@H]2c3cc(C(=O)N4CCCC4)n(CCc4c[nH]c5ccc(OC)cc45)c3C[C@H]2CN1C(=O)c1ccccc1`
[reply] -2.39

[ask] Record request: z-score value, item `C=CC[C@]1(C(=O)N(C)C)N=C(c2ccc(OCCCO)cc2)O[C@H]1c1ccccc1N=[N+]=[N-]`
[reply] 0.668
